Just for reference, patent US7378387B2 is where these values come from.

Give measured IL-6, amount produced relative to that of control group for each item. Keep answers brief.
- Test system: IL-6
- assay_notes: IL-6 production from macrophages induced through administration (Example 9, Table 1)
- Assay type: in vivo, DBA/2 mice
- Parameters: concentration or dose not given beside the values
- setup_conditions: produced spontaneously in the absence of a stimulator
Dear colleague, please return just the value in %, with no unit written.

What does the data say about its IL-6, amount produced relative to that of control group? Entry: CC(=O)N[C@@H](CS)C(=O)O [NAC, N-acetylcysteine, reference compound]
42

Same read-out for `CC(=O)N[C@@H](CSSC[C@H](NC(C)=O)C(=O)O)C(=O)O` ?
340

Same read-out for C[C@@H]1C[C@H]2[C@@H]3CCC4=CC(=O)C=C[C@]4(C)[C@@]3(F)[C@@H](O)C[C@]2(C)[C@@]1(O)C(=O)CO [Dexamethasone, dexamethasone, reference compound] ?
1020

Same read-out for `COC(=O)[C@H](CSSC[C@H](NC(C)=O)C(=O)OC)NC(C)=O` ?
320

Same read-out for `CC(=O)O[C@H]1C=CC=C2C[C@]34SS[C@](CO)(C(=O)N3[C@@H]21)N(C)C4=O` ?
450
